The measurements presented in this section are drawn from the RNAGym collection of RNA variant scans (doi:10.7554/elife.90254).

This section presents variants with their documented self-cleavage values.
B1: LINE1-full (parent)
chain: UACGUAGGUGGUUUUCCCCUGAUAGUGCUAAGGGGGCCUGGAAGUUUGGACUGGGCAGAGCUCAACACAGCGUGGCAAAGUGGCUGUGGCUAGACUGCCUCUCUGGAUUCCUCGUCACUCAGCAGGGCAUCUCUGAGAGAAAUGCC

Variants of: B1
Test: self-cleavage, relative activity (ratio to wild type); higher = more cleavage; in vitro, sequencing; the parent is a self-cleaving ribozyme

variantIdentifier | self-cleavage
U39A U62A | 0.02
G34A C146A | 1.39
U119A G126A | 1.3
A6G A121U | 0.99
U87C A141G | 0.24
C63A A64G | 0.02
U29A G72A | 1.13
A64U U109G | 0.23
C110U A141U | 0.84
U85G U104C | 0
C101U U134C | 1.45
G83A A138G | 0.73
A69C U112C | 0
G93U A141G | 0.03
C17G A59U | 0.55
U45C A121U | 1.13
U46A A121U | 1.43
U13C A129C | 1.33
C3U G82U | 0.88
C68A A124G | 0.05
U102C C123U | 1.21
A50G G105C | 1.11
U29C A77C | 0.85
A6G G55U | 0.41
U12C G86A | 0.14
A43U U109C | 1.32
U87G A124G | 0.31
G54A A121C | 1.05
U12A U85A | 0.15
A117U A142G | 1.43
U13C C18U | 1.57
U14C U109C | 1.25
U91C A124G | 0.33
G21A G137A | 1.21
G7U U73C | 1.55
C51U A69G | 0.66
U13C U15C | 1.03
G83A A107G | 0.91
A107G A136U | 1.82
G82A A138U | 1.9
U26C A59U | 0.84
A22G C38U | 1.95
U85G A141G | 0.1
G88A A121U | 0.04
A22G A129C | 0.27
U112A U134G | 1.73
A65G A124G | 0.07
U91A U104C | 0.42
C19U U29C | 1.37
A42U A69C | 0.02
C17U U23G | 1.11
A42G U102A | 1.38
A43G G48U | 1.28
A78U U96C | 0.17
U14C U87C | 0.26
U1A A136G | 1.71
U73A U85A | 0.05
U12G U108G | 0.82
C37U C123U | 1.67
A30G U130A | 1.15
G32A A141G | 1.95
A92G U104C | 0.05
G36C U45C | 1.05
C118U A138G | 1.18
A43U A140C | 1.58
C16A C38U | 1.45
G49A U87C | 0.21
A24G A117G | 1.78
U81C U102C | 0.72
A117C A121U | 2.02
A6C U134C | 0.61
A30G A79G | 1.19
U62C U96A | 0.03
C16U A140G | 0.99
U81A A138G | 2.16
U12C A124G | 1.23
C19U G75A | 1.11
U52C A64U | 0.45
G32A A77G | 1.56
U13C G40A | 0.91
A64U U87G | 0.11
G34C A124G | 2.03
C71U A79G | 0.2
A64U A65U | 0.02
U62C U132C | 0.06
U26G A138G | 1.21
U26A A57U | 0.04
A77U C146A | 1.23
G4C A140G | 1.19
G27A A129G | 2.07
A50G U81A | 1.3
